- study-system: Sodium channel protein type 10 subunit alpha (Rattus norvegicus)
- Sequence (Q62968 whole entry): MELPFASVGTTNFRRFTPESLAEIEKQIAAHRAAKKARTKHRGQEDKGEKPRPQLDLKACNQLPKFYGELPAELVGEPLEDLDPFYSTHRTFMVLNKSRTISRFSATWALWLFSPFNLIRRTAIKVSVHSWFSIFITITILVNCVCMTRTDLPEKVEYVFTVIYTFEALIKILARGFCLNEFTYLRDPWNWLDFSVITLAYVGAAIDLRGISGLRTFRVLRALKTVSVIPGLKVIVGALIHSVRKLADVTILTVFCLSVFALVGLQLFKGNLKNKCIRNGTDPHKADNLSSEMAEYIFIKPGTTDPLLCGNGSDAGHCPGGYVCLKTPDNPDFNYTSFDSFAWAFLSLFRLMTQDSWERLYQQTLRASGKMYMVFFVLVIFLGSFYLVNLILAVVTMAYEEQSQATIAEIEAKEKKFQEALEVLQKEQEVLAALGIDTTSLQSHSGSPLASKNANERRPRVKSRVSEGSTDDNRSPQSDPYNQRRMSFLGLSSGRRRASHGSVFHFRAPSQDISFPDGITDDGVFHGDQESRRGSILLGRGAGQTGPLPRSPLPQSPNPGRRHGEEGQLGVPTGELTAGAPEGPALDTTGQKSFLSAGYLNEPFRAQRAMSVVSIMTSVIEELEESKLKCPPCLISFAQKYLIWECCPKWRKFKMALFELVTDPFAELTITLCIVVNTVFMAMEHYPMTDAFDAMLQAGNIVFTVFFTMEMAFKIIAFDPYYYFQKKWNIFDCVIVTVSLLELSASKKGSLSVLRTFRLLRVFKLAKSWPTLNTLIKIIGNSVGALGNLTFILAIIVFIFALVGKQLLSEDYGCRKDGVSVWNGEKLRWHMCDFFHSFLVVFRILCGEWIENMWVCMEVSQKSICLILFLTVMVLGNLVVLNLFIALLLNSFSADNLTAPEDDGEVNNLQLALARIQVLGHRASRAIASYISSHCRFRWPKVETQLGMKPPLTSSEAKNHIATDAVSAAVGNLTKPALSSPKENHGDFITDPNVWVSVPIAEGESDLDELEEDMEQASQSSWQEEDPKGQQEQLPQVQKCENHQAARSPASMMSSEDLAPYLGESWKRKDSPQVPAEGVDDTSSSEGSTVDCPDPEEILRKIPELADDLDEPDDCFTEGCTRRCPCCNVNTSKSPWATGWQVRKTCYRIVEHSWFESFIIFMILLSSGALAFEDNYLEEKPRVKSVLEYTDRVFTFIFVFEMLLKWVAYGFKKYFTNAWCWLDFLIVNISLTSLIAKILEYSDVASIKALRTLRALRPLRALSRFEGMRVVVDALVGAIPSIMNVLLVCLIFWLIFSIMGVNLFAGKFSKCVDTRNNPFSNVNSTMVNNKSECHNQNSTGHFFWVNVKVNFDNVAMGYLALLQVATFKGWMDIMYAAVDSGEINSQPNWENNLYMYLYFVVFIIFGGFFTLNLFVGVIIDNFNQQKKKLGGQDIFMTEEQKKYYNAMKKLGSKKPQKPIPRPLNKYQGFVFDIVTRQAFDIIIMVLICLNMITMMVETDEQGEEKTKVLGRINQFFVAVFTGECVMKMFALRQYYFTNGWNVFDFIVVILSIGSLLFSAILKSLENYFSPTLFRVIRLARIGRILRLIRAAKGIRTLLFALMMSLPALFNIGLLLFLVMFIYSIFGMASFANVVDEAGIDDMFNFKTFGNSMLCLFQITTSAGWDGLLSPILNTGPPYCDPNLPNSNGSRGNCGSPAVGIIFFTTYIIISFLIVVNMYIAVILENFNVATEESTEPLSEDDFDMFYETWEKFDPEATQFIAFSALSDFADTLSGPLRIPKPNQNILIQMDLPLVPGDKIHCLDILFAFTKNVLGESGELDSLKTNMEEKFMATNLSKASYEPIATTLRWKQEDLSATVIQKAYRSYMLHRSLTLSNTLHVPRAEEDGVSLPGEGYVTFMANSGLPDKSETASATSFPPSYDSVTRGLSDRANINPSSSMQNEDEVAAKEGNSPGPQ
- procedure-details: Inhibition of tetrodotoxin-resistant NaV1.8 in rat dorsal root ganglion neurons at holding potential -100 mV by whole-cell patch clamp electrophysiology assay
pIC50: −log10 of the molar value.
Lab note: anything with pIC50 at or over 7 counts as Criterion met; the rest go in Criterion not met.

[[record]]
smiles_entry = "CCOc1ccc(-c2cncc(C(=O)Nc3cc(C)cc(C)c3)n2)cc1"
study_system = "Sodium channel protein type 10 subunit alpha (Rattus norvegicus)"
class_assignment = "Criterion met"

[[record]]
smiles_entry = "Cc1cccc(NC(=O)c2cncc(-c3ccc(Cl)cc3)n2)c1"
study_system = "Sodium channel protein type 10 subunit alpha (Rattus norvegicus)"
class_assignment = "Criterion not met"

[[record]]
smiles_entry = "COc1cc(NC(=O)c2cncc(-c3ccc(Cl)cc3)n2)cc(OC)c1"
study_system = "Sodium channel protein type 10 subunit alpha (Rattus norvegicus)"
class_assignment = "Criterion not met"


====

- procedure-details: Oral bioavailability in rat at 3 mg/kg
- Type: ADME, organism-based
- condition-notes: in vivo
# bioavailability annotations
quantity-kind: bioavailability (%)

[[record]]
smiles_entry = "O=C(NCc1cccnc1N1CCOCC1)c1cncc(-c2ccc(OC(F)(F)F)cc2)n1"
result_value = 18.2

[[record]]
smiles_entry = "Cc1cc(C)cc(NC(=O)c2cncc(-c3ccc(C#N)cc3)n2)c1"
result_value = 0


====

# pIC50 annotations
- study-system: Sodium channel protein type 2 subunit alpha (Homo sapiens)
- Sequence (Q99250 whole entry): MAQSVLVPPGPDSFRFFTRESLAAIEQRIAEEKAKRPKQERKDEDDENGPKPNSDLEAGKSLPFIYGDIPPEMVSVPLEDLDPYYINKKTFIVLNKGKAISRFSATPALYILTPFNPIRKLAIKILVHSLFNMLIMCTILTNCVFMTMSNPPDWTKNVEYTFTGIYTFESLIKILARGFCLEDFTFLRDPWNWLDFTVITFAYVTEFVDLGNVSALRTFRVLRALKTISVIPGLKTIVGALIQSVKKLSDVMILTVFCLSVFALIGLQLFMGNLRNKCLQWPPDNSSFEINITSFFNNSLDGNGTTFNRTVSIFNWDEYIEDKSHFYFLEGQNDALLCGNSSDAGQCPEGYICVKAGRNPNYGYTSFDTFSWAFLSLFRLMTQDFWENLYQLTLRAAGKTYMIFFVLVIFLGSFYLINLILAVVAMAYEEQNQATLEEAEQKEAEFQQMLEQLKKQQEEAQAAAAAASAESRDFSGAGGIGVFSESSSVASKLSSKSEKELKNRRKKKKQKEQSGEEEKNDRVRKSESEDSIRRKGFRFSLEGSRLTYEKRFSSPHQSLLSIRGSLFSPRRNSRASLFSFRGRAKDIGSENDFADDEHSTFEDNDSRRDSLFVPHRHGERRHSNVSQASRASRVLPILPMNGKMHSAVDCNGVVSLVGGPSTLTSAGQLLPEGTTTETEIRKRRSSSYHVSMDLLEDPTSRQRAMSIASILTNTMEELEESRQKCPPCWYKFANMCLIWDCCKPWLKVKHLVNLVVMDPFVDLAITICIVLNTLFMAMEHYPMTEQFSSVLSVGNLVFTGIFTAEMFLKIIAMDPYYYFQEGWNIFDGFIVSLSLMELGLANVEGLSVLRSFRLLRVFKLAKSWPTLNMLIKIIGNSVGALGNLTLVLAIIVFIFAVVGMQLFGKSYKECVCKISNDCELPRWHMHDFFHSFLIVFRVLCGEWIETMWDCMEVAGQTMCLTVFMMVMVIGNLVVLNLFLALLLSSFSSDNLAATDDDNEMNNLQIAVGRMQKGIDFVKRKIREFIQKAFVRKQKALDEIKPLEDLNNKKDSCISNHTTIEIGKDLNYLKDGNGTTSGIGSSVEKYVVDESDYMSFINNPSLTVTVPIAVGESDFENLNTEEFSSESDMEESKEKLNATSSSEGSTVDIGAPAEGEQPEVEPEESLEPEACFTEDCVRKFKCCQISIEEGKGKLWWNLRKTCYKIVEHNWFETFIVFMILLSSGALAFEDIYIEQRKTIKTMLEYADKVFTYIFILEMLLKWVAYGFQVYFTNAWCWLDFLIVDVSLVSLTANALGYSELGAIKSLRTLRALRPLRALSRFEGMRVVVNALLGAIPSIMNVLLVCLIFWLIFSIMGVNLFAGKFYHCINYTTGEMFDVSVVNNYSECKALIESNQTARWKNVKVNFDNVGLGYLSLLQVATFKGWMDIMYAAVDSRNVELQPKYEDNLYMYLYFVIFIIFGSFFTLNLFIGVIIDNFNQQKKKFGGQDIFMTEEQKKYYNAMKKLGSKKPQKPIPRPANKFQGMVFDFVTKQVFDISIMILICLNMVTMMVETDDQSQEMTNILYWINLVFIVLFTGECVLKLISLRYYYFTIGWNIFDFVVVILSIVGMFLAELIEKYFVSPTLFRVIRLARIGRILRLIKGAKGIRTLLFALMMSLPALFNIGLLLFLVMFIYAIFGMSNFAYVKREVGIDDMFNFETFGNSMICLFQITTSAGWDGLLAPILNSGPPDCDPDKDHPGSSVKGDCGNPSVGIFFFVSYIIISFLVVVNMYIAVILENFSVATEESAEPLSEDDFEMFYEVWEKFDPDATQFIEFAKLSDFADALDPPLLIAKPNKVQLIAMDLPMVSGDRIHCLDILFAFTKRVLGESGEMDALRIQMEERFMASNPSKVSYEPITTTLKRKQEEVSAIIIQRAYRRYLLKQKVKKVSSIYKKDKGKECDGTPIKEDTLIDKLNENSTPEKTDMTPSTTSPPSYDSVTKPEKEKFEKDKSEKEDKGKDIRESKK
- procedure-details: Inhibition of human recombinant NaV1.2 by electrophysiology
pIC50: −log10 of the molar value.
quantity-kind: pIC50

[[record]]
smiles_entry = "CCOc1ccc(-c2cncc(C(=O)Nc3cc(C)cc(C)c3)n2)cc1"
result_value = 6.44

[[record]]
smiles_entry = "Cc1ccccc1CNC(=O)c1cncc(-c2ccc(OC(F)(F)F)cc2)n1"
result_value = 5.92

[[record]]
smiles_entry = "O=C(NCCc1ccc(Cl)cc1)c1cncc(-c2ccc(Cl)cc2)n1"
result_value = 6.00

[[record]]
smiles_entry = "Cc1cc(C)cc(NC(=O)c2cncc(-c3ccc(C#N)cc3)n2)c1"
result_value = 5.80

[[record]]
smiles_entry = "O=C(NCc1cccnc1N1CCOCC1)c1cncc(-c2ccc(OC(F)(F)F)cc2)n1"
result_value = 5.82

[[record]]
smiles_entry = "Cc1ccccc1CNC(=O)c1cncc(-c2ccc(C#N)cc2)n1"
result_value = 6.00

[[record]]
smiles_entry = "CC(C)Oc1cccc(NC(=O)c2cncc(-c3ccc(C#N)cc3)n2)c1"
result_value = 5.04

[[record]]
smiles_entry = "O=C(NCc1cccnc1Cl)c1cncc(-c2ccc(OC(F)(F)F)cc2)n1"
result_value = 5.41

[[record]]
smiles_entry = "COc1cc(NC(=O)c2cncc(-c3ccc(Cl)cc3)n2)cc(OC)c1"
result_value = 5.21

[[record]]
smiles_entry = "Cc1cccc(NC(=O)c2cncc(-c3ccc(OC(F)(F)F)cc3)n2)c1"
result_value = 5.66

[[record]]
smiles_entry = "CCOc1ccc(-c2cncc(C(=O)NCc3ccccc3C)n2)cc1"
result_value = 6.33

[[record]]
smiles_entry = "Cc1cc(C)cc(NC(=O)c2cncc(-c3ccc(Cl)cc3)n2)c1"
result_value = 5.30

[[record]]
smiles_entry = "Cc1cccc(NC(=O)c2cncc(-c3ccc(Cl)cc3)n2)c1"
result_value = 5.09

[[record]]
smiles_entry = "O=C(NCc1cccnc1N1CCCC1)c1cncc(-c2ccc(Cl)cc2)n1"
result_value = 6.00

[[record]]
smiles_entry = "CCOc1ccc(-c2cncc(C(=O)Nc3cccc(C)c3)n2)cc1"
result_value = 6.00

